Assay: clinical
Conditions: human, plasma, po, 10 mg
measurementKind: Cmax (ng/mL)
Quick note: give the figure in ng/mL, leave out the unit.

Request: So what's the measured Cmax for this one? COc1ccc(-n2nc(C(N)=O)c3c2C(=O)N(c2ccc(N4CCCCC4=O)cc2)CC3)cc1 [apixaban]
Result: 176

###

Test: clinical
Conditions: human, plasma, po, 10 mg
measurementKind: AUC(0-inf) (ng·h/mL)
Write the answer as a number in ng·h/mL, unit excluded.

Request: Which measured AUC(0-inf) value corresponds to COc1ccc(-n2nc(C(N)=O)c3c2C(=O)N(c2ccc(N4CCCCC4=O)cc2)CC3)cc1 ?
Result: 1300

###

Experiment: clinical
Conditions: human, plasma, po, 2.5 mg
measurementKind: AUC(0-t)
Please don't drop the unit; write it after the number.

Request: Given COc1ccc(-n2nc(C(N)=O)c3c2C(=O)N(c2ccc(N4CCCCC4=O)cc2)CC3)cc1 , state its recorded AUC(0-t).
Result: 421 ng·h/mL

###

Assay: clinical
Conditions: human, plasma, po, 50 mg
measurementKind: AUC(0-t) (ng·h/mL)
A number alone suffices; assume ng·h/mL.

Request: # AUC(0-t) lookup, item COc1ccc(-n2nc(C(N)=O)c3c2C(=O)N(c2ccc(N4CCCCC4=O)cc2)CC3)cc1
Result: 7100

###

Assay: clinical
Settings: human, plasma, po, 50 mg
measurementKind: Cmax (ng/mL)
Give the quantity in ng/mL, number only.

Request: Which value of Cmax has been reported for COc1ccc(-n2nc(C(N)=O)c3c2C(=O)N(c2ccc(N4CCCCC4=O)cc2)CC3)cc1 [apixaban] in the records?
Result: 685

###

Assay: clinical
Settings: human, plasma, po, 25 mg
measurementKind: AUC(0-inf)
Could you kindly put the unit after your number?

Request: Return reported AUC(0-inf); argument: COc1ccc(-n2nc(C(N)=O)c3c2C(=O)N(c2ccc(N4CCCCC4=O)cc2)CC3)cc1
Result: 4010 ng·h/mL

###

Assay: clinical
Details: human, plasma, oral, 10 mg, AUC(0,t) Adjusted geometric mean, 10 mg fed
measurementKind: AUC(0-t) (ng·h/mL)
Lab book: enter the figure in ng·h/mL, no units written.

Request: Form field: reported AUC(0-t) of COc1ccc(-n2nc(C(N)=O)c3c2C(=O)N(c2ccc(N4CCCCC4=O)cc2)CC3)cc1 [apixaban]
Result: 1810

###

Test: clinical
Settings: human, plasma, oral, 10 mg, AUC(0,∞) Adjusted geometric mean, 10 mg fasted
measurementKind: AUC(0-inf)
Give the value; after it, write the unit.

Request: I am curious: what AUC(0-inf) value has been reported for COc1ccc(-n2nc(C(N)=O)c3c2C(=O)N(c2ccc(N4CCCCC4=O)cc2)CC3)cc1 [apixaban] ?
Result: 1790 ng·h/mL

###

Test: clinical
Details: human, plasma, po, 0.5 mg
measurementKind: AUC(0-t) (ng·h/mL)
Hi! Could you send only the number? It should be in ng·h/mL, unit omitted.

Request: Which AUC(0-t) is listed for COc1ccc(-n2nc(C(N)=O)c3c2C(=O)N(c2ccc(N4CCCCC4=O)cc2)CC3)cc1 ?
Result: 52.7

###

Assay: clinical
Conditions: human, plasma, oral, 10 mg, half-life, single doses, overall conclusion
measurementKind: half-life

Request: Which half-life is reported for this compound? COc1ccc(-n2nc(C(N)=O)c3c2C(=O)N(c2ccc(N4CCCCC4=O)cc2)CC3)cc1
Result: ~12 h

###

Test: clinical
Settings: human, plasma, po, 1 mg
measurementKind: Cmax

Request: # get_value(readout='Cmax', item= COc1ccc(-n2nc(C(N)=O)c3c2C(=O)N(c2ccc(N4CCCCC4=O)cc2)CC3)cc1 )
Result: 23.5 ng/mL

###

Test: clinical
Conditions: human, plasma, po, 0.5 mg
measurementKind: Cmax (ng/mL)
Value expressed in ng/mL; do not type the unit.

Request: // lookup Cmax for COc1ccc(-n2nc(C(N)=O)c3c2C(=O)N(c2ccc(N4CCCCC4=O)cc2)CC3)cc1 [apixaban]
Result: 9.1

###

Experiment: clinical
Conditions: human, plasma, po, 10 mg
measurementKind: AUC(0-t) (ng·h/mL)
Express it in ng·h/mL; write the number only.

Request: GET /values?readout=AUC(0-t)&item= COc1ccc(-n2nc(C(N)=O)c3c2C(=O)N(c2ccc(N4CCCCC4=O)cc2)CC3)cc1 [apixaban]
Result: 1270

###

Experiment: clinical
Settings: human, plasma, po, Median tmax, range over doses, oral solution (0.5–2.5 mg)
measurementKind: Tmax

Request: Could you tell me which Tmax is on file for COc1ccc(-n2nc(C(N)=O)c3c2C(=O)N(c2ccc(N4CCCCC4=O)cc2)CC3)cc1 ?
Result: 1.5 to 1.8 h

###

Experiment: clinical
Conditions: human, plasma, po, 2.5 mg
measurementKind: Cmax (ng/mL)
Enter your answer as a number in ng/mL; do not include the unit.

Request: Which Cmax value belongs to COc1ccc(-n2nc(C(N)=O)c3c2C(=O)N(c2ccc(N4CCCCC4=O)cc2)CC3)cc1 [apixaban] ?
Result: 52.5

###

Experiment: clinical
Details: human, plasma, po, 5 mg
measurementKind: AUC(0-inf) (ng·h/mL)
Numbers only here, please. The scale is ng·h/mL.

Request: So what's the measured AUC(0-inf) for this one? COc1ccc(-n2nc(C(N)=O)c3c2C(=O)N(c2ccc(N4CCCCC4=O)cc2)CC3)cc1 [apixaban]
Result: 1020

###

Experiment: clinical
Conditions: human, plasma, po, 50 mg
measurementKind: AUC(0-inf) (ng·h/mL)
Give just the numeric value; ng·h/mL need not be written.

Request: Give its AUC(0-inf) value. Item: COc1ccc(-n2nc(C(N)=O)c3c2C(=O)N(c2ccc(N4CCCCC4=O)cc2)CC3)cc1
Result: 7560

###

Assay: clinical
Conditions: human, plasma, po, 25 mg
measurementKind: AUC(0-t) (ng·h/mL)
Express the result in ng·h/mL but write the number alone.

Request: Entry COc1ccc(-n2nc(C(N)=O)c3c2C(=O)N(c2ccc(N4CCCCC4=O)cc2)CC3)cc1 has what AUC(0-t)?
Result: 3870

###

Assay: clinical
Conditions: human, plasma, po, 5 mg
measurementKind: Cmax (ng/mL)
# value in ng/mL; strip the unit string

Request: I'd like to know its Cmax. The molecule in question is COc1ccc(-n2nc(C(N)=O)c3c2C(=O)N(c2ccc(N4CCCCC4=O)cc2)CC3)cc1 [apixaban]
Result: 105

###

Assay: clinical
Details: human, plasma, oral, 10 mg, half-life, food effect study
measurementKind: half-life

Request: Could you share which half-life value was measured for COc1ccc(-n2nc(C(N)=O)c3c2C(=O)N(c2ccc(N4CCCCC4=O)cc2)CC3)cc1 [apixaban] ?
Result: ~11.5 h

###

Assay: clinical
Conditions: human, plasma, po, 25 mg
measurementKind: Cmax (ng/mL)
Your answer is read as ng/mL, so omit the unit and give the number.

Request: Recorded Cmax for COc1ccc(-n2nc(C(N)=O)c3c2C(=O)N(c2ccc(N4CCCCC4=O)cc2)CC3)cc1 , please?
Result: 365

###

Assay: clinical
Settings: human, plasma, oral, 10 mg, Cmax Adjusted geometric mean, 10 mg fasted
measurementKind: Cmax
Answer with the number, then the unit.

Request: So what does the record say about Cmax for COc1ccc(-n2nc(C(N)=O)c3c2C(=O)N(c2ccc(N4CCCCC4=O)cc2)CC3)cc1 [apixaban] ?
Result: 151 ng/mL

###

Assay: clinical
Settings: human, plasma, oral, 10 mg, AUC(0,∞) Adjusted geometric mean, 10 mg fed
measurementKind: AUC(0-inf) (ng·h/mL)
# value in ng·h/mL; strip the unit string

Request: So what's the measured AUC(0-inf) for this one? COc1ccc(-n2nc(C(N)=O)c3c2C(=O)N(c2ccc(N4CCCCC4=O)cc2)CC3)cc1
Result: 1870
